Some compounds, each annotated with its measured inhibition at 10 µM.
Test system: HCV Replicon IB
Assay: HCV replicon assay in Huh-7 cells, genotype 1b (Rluc luciferase readout)
Type: cell-based, hepatitis C virus
Conditions: Hepatitis C virus, 72 h; 10 uM; 1b-Rluc replicon, Huh-7 cells, 3 days; read-out: Inhibition @ 10 uM in 1b-Rluc
Use % as the unit, but write only the number.

These recorded examples may help you get a feel for the data.
- Cc1cc(C(=O)NCC2CCCCN2C(=O)OC(C)(C)C)nc2c(C(F)(F)F)cc(C3CC3)cc12 (centres unmarked): 94.5
- Cc1cc(C(=O)NC[C@H]2CCCN2)nc2c(C(F)(F)F)cc(C3CC3)cc12 (single isomer, unassigned): 96.2
- Cc1cc(C(=O)NCc2ccccn2)nc2c(C(F)(F)F)cc(C3CC3)cc12: 100
- Cc1cc(-c2nnc(NCCCO)s2)nc2c(C(F)(F)F)cc(C3CC3)cc12: 99.9
- COCCNc1nnc(-c2cc(C)c3cc(OC)cc(C(F)(F)F)c3n2)o1: 99.7
- Cc1cc(-c2nnc(NCc3ccccn3)o2)nc2c(C(F)(F)F)cc(C3CC3)cc12: 99.7
- Cc1cc(-c2nnc(NCCC3OCCO3)s2)nc2c(C(F)(F)F)cc(C3CC3)cc12: 99.9

Read the next record carefully.
Exam item: Fill in: inhibition at 10 µM of `O=C(NCc1ccccn1)c1cc(Cl)c2cc(C3CC3)cc(C(F)(F)F)c2n1` is ___
Marked response: 99.9

Cited source: patent US20120053148A1
